- system: AOC3 (Homo sapiens (Human))
- protocol-summary: MAO-Glo AOC3 assay
- setup-conditions: recombinant CHO cells overexpressing AOC3 enzyme
experimental-readout: IC50
# number then unit; no other words

Below are worked cases with known answers.
chem-smiles	system	IC50
N#Cc1ccc(COC(=O)NC(=N)N)c(F)c1N1CCC(c2cn3ccccc3n2)CC1	AOC3 (Homo sapiens (Human))	5 nM
N#Cc1ccc(COC(=O)NC(=N)N)c(F)c1N1CCN(c2ccccn2)CC1	AOC3 (Homo sapiens (Human))	271 nM
N#Cc1ccc(COC(=O)NC(=N)N)c(F)c1N1CC=C(c2ncccn2)CC1	AOC3 (Homo sapiens (Human))	34 nM

# input for lookup
Query: Param item = N#Cc1ccc(COC(=O)NC(=N)N)c(F)c1N1CCC(c2ccc(C(F)(F)F)cc2)CC1 ; retrieve measured IC50.
Result: 502 nM

====

- system: AOC3 (Homo sapiens (Human))
- protocol-summary: MAO-Glo AOC3 assay
- setup-conditions: recombinant CHO cells overexpressing AOC3 enzyme
Items are presented alongside their recorded pIC50.
// returns pIC50 (minus log10 of molar concentration), number only

Below are worked cases with known answers.
compound	recorded-measurement
N#Cc1ccc(COC(=O)NC(=N)N)c(F)c1N1CC(c2ccccn2)C1 [Example 1.087]	6.33
N#Cc1ccc(COC(=O)NC(=N)N)c(F)c1N1CCN(C2CCCC2)C(=O)C1 [Example 1.053]	7.82
COC(=O)N1CCC(C2CCN(c3c(C#N)ccc(COC(=O)NC(=N)N)c3F)CC2)CC1 [Example 1.027]	8.40
N#Cc1ccc(N2CCN(c3c(C#N)ccc(COC(=O)NC(=N)N)c3F)CC2)cc1 [Example 1.009]	8.52
N#Cc1ccc(COC(=O)NC(=N)N)c(F)c1N1CCC(c2nccs2)CC1 [Example 1.030]	7.19

Query: Param item = N#Cc1ccc(COC(=O)NC(=N)N)c(F)c1N1CCC2(CC1)CC(=O)Nc1ncccc12 [Example 2.002] ; retrieve measured pIC50.
Result: 7.03

Query: Param item = CC(=O)N[C@@H](C)c1ccc(C2CN(c3c(C#N)ccc(COC(=O)NC(=N)N)c3F)C2)cc1 [Example 1.015] ; retrieve measured pIC50.
Result: 7.72

Query: Param item = N#Cc1ccc(COC(=O)NC(=N)N)c(F)c1N1CCC(C#N)(c2ccccc2)CC1 [Example 2.001] ; retrieve measured pIC50.
Result: 6.78

====

- system: AOC3 (Homo sapiens (Human), UniProt Q16853)
- Sequence (Q16853 whole entry): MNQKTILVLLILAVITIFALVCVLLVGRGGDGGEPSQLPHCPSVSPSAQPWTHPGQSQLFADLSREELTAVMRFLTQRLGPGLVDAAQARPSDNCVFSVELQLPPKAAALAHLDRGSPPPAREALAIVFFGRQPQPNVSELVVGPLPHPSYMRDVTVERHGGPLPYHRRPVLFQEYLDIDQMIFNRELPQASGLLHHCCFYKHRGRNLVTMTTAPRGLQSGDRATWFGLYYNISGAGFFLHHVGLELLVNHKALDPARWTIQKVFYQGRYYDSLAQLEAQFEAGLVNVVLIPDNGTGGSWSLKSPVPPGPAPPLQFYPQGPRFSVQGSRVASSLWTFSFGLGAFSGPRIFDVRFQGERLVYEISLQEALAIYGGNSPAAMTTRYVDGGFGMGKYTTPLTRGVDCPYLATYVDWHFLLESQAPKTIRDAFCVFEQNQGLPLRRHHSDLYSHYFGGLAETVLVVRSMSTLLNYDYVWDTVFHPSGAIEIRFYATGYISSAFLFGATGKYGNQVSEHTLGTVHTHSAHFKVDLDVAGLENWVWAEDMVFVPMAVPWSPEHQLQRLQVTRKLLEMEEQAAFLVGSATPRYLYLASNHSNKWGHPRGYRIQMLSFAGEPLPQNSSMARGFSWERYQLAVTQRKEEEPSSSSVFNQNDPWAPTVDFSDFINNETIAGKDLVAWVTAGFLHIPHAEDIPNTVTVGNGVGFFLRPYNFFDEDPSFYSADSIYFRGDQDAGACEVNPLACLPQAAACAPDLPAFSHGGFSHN
- protocol-summary: MAO-Glo AOC3 assay
- setup-conditions: recombinant CHO cells overexpressing AOC3 enzyme
Items are presented alongside their recorded IC50.
Your answer should be a plain number; it is taken to be in nM.

Below are worked cases with known answers.
chem-smiles	system	IC50 / nM
N#Cc1ccc(COC(=O)NC(=N)N)c(F)c1N1CCN(c2nccs2)CC1	AOC3 (Homo sapiens (Human), UniProt Q16853)	27
CC(=O)N1CCN(C2CCN(c3c(C#N)ccc(COC(=O)NC(=N)N)c3F)CC2)CC1	AOC3 (Homo sapiens (Human), UniProt Q16853)	67
CN(C)C(=O)c1ccc(N2CCN(c3c(C#N)ccc(COC(=O)NC(=N)N)c3F)CC2)cc1	AOC3 (Homo sapiens (Human), UniProt Q16853)	70
N#Cc1ccc(COC(=O)NC(=N)N)c(F)c1N1CCC(c2cccc(Cl)c2)CC1	AOC3 (Homo sapiens (Human), UniProt Q16853)	56
Cc1ccc(N2CCN(c3c(C#N)ccc(COC(=O)NC(=N)N)c3F)CC2)nc1	AOC3 (Homo sapiens (Human), UniProt Q16853)	42
N#Cc1ccc(COC(=O)NC(=N)N)c(F)c1N1CCC(O)(c2ccccc2)CC1	AOC3 (Homo sapiens (Human), UniProt Q16853)	280
COc1ccc(N2CCN(c3c(C#N)ccc(COC(=O)NC(=N)N)c3F)CC2)cc1	AOC3 (Homo sapiens (Human), UniProt Q16853)	128
N#Cc1ccc(COC(=O)NC(=N)N)c(F)c1N1CCC(N2CCC(C(N)=O)CC2)CC1	AOC3 (Homo sapiens (Human), UniProt Q16853)	50

Query: Param item = COc1cccc(C2=CCN(c3c(C#N)ccc(COC(=O)NC(=N)N)c3F)CC2)c1 ; retrieve measured IC50.
Result: 30

Query: Param item = CCOc1ccc(C2CCN(c3c(C#N)ccc(COC(=O)NC(=N)N)c3F)CC2)cn1 ; retrieve measured IC50.
Result: 20

====

- system: AOC3 (Homo sapiens (Human), UniProt Q16853)
- protocol-summary: MAO-Glo AOC3 assay
- setup-conditions: recombinant CHO cells overexpressing AOC3 enzyme
Items are presented alongside their recorded log10 of IC50.
A difference of one corresponds to tenfold IC50; all values are log10 with IC50 in nM.

Below are worked cases with known answers.
chem-smiles	system	recorded-measurement
N#Cc1ccc(COC(=O)NC(=N)N)c(F)c1N1CCC(C2CCOCC2)CC1	AOC3 (Homo sapiens (Human), UniProt Q16853)	1.30
N#Cc1ccc(COC(=O)NC(=N)N)c(F)c1N1CCN(c2ccccc2)C(=O)C1	AOC3 (Homo sapiens (Human), UniProt Q16853)	2.12
CC(=O)N1CCC(C2CN(c3c(C#N)ccc(COC(=O)NC(=N)N)c3F)C2)CC1	AOC3 (Homo sapiens (Human), UniProt Q16853)	1.40

# input for lookup
Query: GET /values?readout=log10 of IC50&system=AOC3 (Homo sapiens (Human), UniProt Q16853)&item= N#Cc1ccc(COC(=O)NC(=N)N)c(F)c1N1CCC(N2CCCC2=O)CC1
Result: 2.95

====

- system: AOC3 (Homo sapiens (Human), UniProt Q16853)
- protocol-summary: MAO-Glo AOC3 assay
- setup-conditions: recombinant CHO cells overexpressing AOC3 enzyme
Items are presented alongside their recorded IC50.
Your answer should be a plain number; it is taken to be in nM.

Below are worked cases with known answers.
compound	unit-info	IC50
CC1CN(c2c(C#N)ccc(COC(=O)NC(=N)N)c2F)CCN1c1ccccc1 (centres unmarked)	nM	64
N#Cc1ccc(COC(=O)NC(=N)N)c(F)c1N1CCC(c2ccc(Cl)cc2)CC1	nM	102
N#Cc1cccc(N2CCN(c3c(C#N)ccc(COC(=O)NC(=N)N)c3F)CC2)c1	nM	2
N#Cc1ccc(COC(=O)NC(=N)N)c(F)c1N1CCN(c2ncncn2)CC1	nM	57
N#Cc1ccc(COC(=O)NC(=N)N)c(F)c1N1CCN(c2ccc(F)cc2)C(=O)C1	nM	5

Query: Param item = N#Cc1ccc(COC(=O)NC(=N)N)c(F)c1N1CCN(c2ncc(F)cn2)CC1 ; retrieve measured IC50.
Result: 27

Query: Param item = CCOc1cc(C2CCN(c3c(C#N)ccc(COC(=O)NC(=N)N)c3F)CC2)ccn1 ; retrieve measured IC50.
Result: 12

Query: Param item = COc1cccc(N2CCN(c3c(C#N)ccc(COC(=O)NC(=N)N)c3F)CC2)c1 ; retrieve measured IC50.
Result: 21

====

- system: AOC3 (Homo sapiens (Human))
- protocol-summary: MAO-Glo AOC3 assay
- setup-conditions: recombinant CHO cells overexpressing AOC3 enzyme
- Protocol: The MAO-Glo™ Assay (commercial available from PROMEGA, #V1402) provides a sensitive method for the measurement of monoamine oxidase (MAO) activity (Valley, M. P. et al., 2006, Anal. Biochem. 359: 238-246) from a variety of tissues, biofluids or recombinant expressed or purified enzymes. […] After a spontaneous elimination and a catalyzed esterase reaction, the turnover of the luciferine by the luciferase is recorded as a signal of AOC3 activity. […]
experimental-readout: pIC50
// returns pIC50 (minus log10 of molar concentration), number only

Below are worked cases with known answers.
compound	pIC50
Cc1cc(N2CCN(c3c(C#N)ccc(COC(=O)NC(=N)N)c3F)CC2)ccn1 [Example 2.004]	8.52
N#Cc1ccc(COC(=O)NC(=N)N)c(F)c1N1CCN(c2ccc(C(N)=O)cc2)CC1 [Example 1.058]	7.15
N#Cc1ccc(C2CN(c3c(C#N)ccc(COC(=O)NC(=N)N)c3F)C2)cc1 [Example 1.013]	7.72

Query: Param item = Cc1cnc(C2=CCN(c3c(C#N)ccc(COC(=O)NC(=N)N)c3F)CC2)o1 [Example 1.071] ; retrieve measured pIC50.
Result: 7.92

====

- system: AOC3 (Homo sapiens (Human))
- protocol-summary: MAO-Glo AOC3 assay
- setup-conditions: recombinant CHO cells overexpressing AOC3 enzyme
Note to self: class labels come from recorded IC50, ranges listed here: lower bin: < 0.01 µM; middle bin: ≥ 0.01 µM and < 0.1 µM; upper bin: ≥ 0.1 µM

Field: example entries. Status: answers known.
compound	system	class-name
N#Cc1ccc(COC(=O)NC(=N)N)c(F)c1N1C2CCC1CC(c1ccccc1)C2 (centres unmarked)	AOC3 (Homo sapiens (Human))	upper bin
N#Cc1ccc(N2CCN(c3c(C#N)ccc(COC(=O)NC(=N)N)c3F)CC2)c(F)c1	AOC3 (Homo sapiens (Human))	middle bin
N#Cc1ccc(COC(=O)NC(=N)N)c(F)c1N1CCCN(c2cccnc2)CC1	AOC3 (Homo sapiens (Human))	middle bin
Cc1cnc(C2CCN(c3c(C#N)ccc(COC(=O)NC(=N)N)c3F)CC2)o1	AOC3 (Homo sapiens (Human))	middle bin
COc1cnc(N2CCN(c3c(C#N)ccc(COC(=O)NC(=N)N)c3F)CC2)nc1	AOC3 (Homo sapiens (Human))	middle bin
N#Cc1ccc(COC(=O)NC(=N)N)c(F)c1N1CCN(c2ccc(Cl)cn2)CC1	AOC3 (Homo sapiens (Human))	lower bin
CN1CCN(C2CCN(c3c(C#N)ccc(COC(=O)NC(=N)N)c3F)CC2)C(=O)C1	AOC3 (Homo sapiens (Human))	upper bin
CC(=O)N1CCC(C2CCN(c3c(C#N)ccc(COC(=O)NC(=N)N)c3F)CC2)CC1	AOC3 (Homo sapiens (Human))	lower bin
N#Cc1ccc(COC(=O)NC(=N)N)c(F)c1N1CC=C(c2ccc(F)cc2)CC1	AOC3 (Homo sapiens (Human))	middle bin
COc1cnc(C2CCN(c3c(C#N)ccc(COC(=O)NC(=N)N)c3F)CC2)nc1	AOC3 (Homo sapiens (Human))	upper bin

Query: Band for N#Cc1ccc(COC(=O)NC(=N)N)c(F)c1N1CCN(c2cccnc2)CC1 ?
Result: lower bin

Query: Band for N#Cc1cccc(C2CCN(c3c(C#N)ccc(COC(=O)NC(=N)N)c3F)CC2)c1 ?
Result: lower bin
